Tested on: plasma corticosterone
Experiment: in vivo suppression of plasma corticosterone levels in ACTH-stimulated rats
Design: species or system Wistar rats
Conditions: rat plasma, 4 mg/kg p.o., 2 h after dosing vs 1 h before dosing
What Corticosterone levels (% change at 2 h) was measured for each of the following?
Write the number in % without appending the unit.

// query Suppose we examine the compound CC(=O)c1ccc(C2CCn3cncc32)cc1 (centres unmarked) ; what Corticosterone levels (% change at 2 h) value has been reported?
// result −13

// query Suppose we examine the compound CSc1ccc(C2CCCn3cncc32)cc1 (centres unmarked) ; what Corticosterone levels (% change at 2 h) value has been reported?
// result 2

// query Suppose we examine the compound CC1(C)CCn2cncc2C1c1ccc(C#N)cc1 (centres unmarked) ; what Corticosterone levels (% change at 2 h) value has been reported?
// result −3

// query Suppose we examine the compound O=[N+]([O-])c1ccccc1C1CCCn2cncc21 (centres unmarked) ; what Corticosterone levels (% change at 2 h) value has been reported?
// result 0

// query Suppose we examine the compound Fc1ccc(C2CCn3cncc32)cc1F (centres unmarked) ; what Corticosterone levels (% change at 2 h) value has been reported?
// result −32
